Conditions: human gut metagenome, 24 h, 2 µM; further: call rule not given here
Metric name: Bacterial Biotransformation

Molecule: CC(CCc1ccccc1)NCC(O)c1ccc(O)c(C(N)=O)c1 (stereo not drawn) [LABETALOL]
Metric name: Bacterial Biotransformation
Reported value: Compound NOT metabolized

Molecule: O=C1C(CC[S+]([O-])c2ccccc2)C(=O)N(c2ccccc2)N1c1ccccc1 (stereo not drawn) [SULFINPYRAZONE]
Metric name: Bacterial Biotransformation
Reported value: Compound metabolized

Molecule: COc1ccnc(C[S+]([O-])c2nc3ccc(OC(F)F)cc3[nH]2)c1OC (stereo not drawn) [PANTOPRAZOLE]
Metric name: Bacterial Biotransformation
Reported value: Compound metabolized

Molecule: CC1=C(CC(=O)O)c2cc(F)ccc2/C1=C\c1ccc([S+](C)[O-])cc1 (stereo not drawn)
Metric name: Bacterial Biotransformation
Reported value: Compound metabolized

Molecule: C[C@@H](c1ncncc1F)[C@](O)(Cn1cncn1)c1ccc(F)cc1F [VORICONAZOLE]
Metric name: Bacterial Biotransformation
Reported value: Compound metabolized

Would you mind telling me what Bacterial Biotransformation value was observed for CC(C)c1c(CN(C)C(C)Cc2ccccc2)n(C)n(-c2ccccc2)c1=O (stereo not drawn) [FAMPROFAZONE] ? Compound metabolized

Would you mind telling me what Bacterial Biotransformation value was observed for COc1ccc(C(CN(C)C)C2(O)CCCCC2)cc1 (stereo not drawn) [VENLAFAXINE] ? Compound metabolized

Would you mind telling me what Bacterial Biotransformation value was observed for CN(C)C(=O)Oc1cccc([N+](C)(C)C)c1.[Br-] [NEOSTIGMINE BROMIDE] ? Compound NOT metabolized

Would you mind telling me what Bacterial Biotransformation value was observed for C#C[C@]1(OC(C)=O)CC[C@H]2[C@@H]3CCC4=CC(=O)CC[C@@H]4[C@H]3CC[C@@]21C [NORETHINDRONE ACETATE] ? Compound NOT metabolized

Would you mind telling me what Bacterial Biotransformation value was observed for Cc1cc(C)cc(OCC2CNC(=O)O2)c1 (stereo not drawn) [METAXALONE] ? Compound metabolized

Would you mind telling me what Bacterial Biotransformation value was observed for CC(=O)O[C@]1(C(C)=O)CC[C@H]2[C@@H]3C=C(C)C4=CC(=O)CC[C@]4(C)[C@H]3CC[C@@]21C [MEGESTROL ACETATE] ? Compound metabolized

Would you mind telling me what Bacterial Biotransformation value was observed for Br.CN1CCC[C@@H]1Cc1c[nH]c2ccc(CCS(=O)(=O)c3ccccc3)cc12 [ELETRIPTAN HYDROBROMIDE] ? Compound metabolized

Would you mind telling me what Bacterial Biotransformation value was observed for CN(CCOc1ccc(CC2SC(=O)NC2=O)cc1)c1ccccn1.O=C(O)/C=C\C(=O)O (stereo not drawn) [ROSIGLITAZONE MALEATE] ? Compound metabolized

Would you mind telling me what Bacterial Biotransformation value was observed for Nc1nnc(-c2cccc(Cl)c2Cl)c(N)n1 [LAMOTRIGINE] ? Compound NOT metabolized

Would you mind telling me what Bacterial Biotransformation value was observed for CCOC(=O)C1=C[C@]2(CC)CCCN3CCc4c(n1c1ccccc41)[C@@H]32 [VINPOCETINE] ? Compound metabolized

Would you mind telling me what Bacterial Biotransformation value was observed for CC(C)NCC(O)COc1ccc(CC(N)=O)cc1 (stereo not drawn) [ATENOLOL] ? Compound metabolized

Would you mind telling me what Bacterial Biotransformation value was observed for Clc1cccc(Cl)c1N=C1NCCN1 [CLONIDINE] ? Compound metabolized

Would you mind telling me what Bacterial Biotransformation value was observed for COc1ccc(CN2CCNCC2)c(OC)c1OC.Cl.Cl [TRIMETAZIDINE DIHYDROCHLORIDE] ? Compound NOT metabolized
